src = patent US9850283B2

TARGET UNDER TEST: LK35.2-hPD-L1 cells / PE-labeled PD-1-Ig (Homo sapiens)
Construct: expressed in transfected cells; host or cells: LK35.2 mouse B cell line
Sequence (Q9NZQ7 19-290): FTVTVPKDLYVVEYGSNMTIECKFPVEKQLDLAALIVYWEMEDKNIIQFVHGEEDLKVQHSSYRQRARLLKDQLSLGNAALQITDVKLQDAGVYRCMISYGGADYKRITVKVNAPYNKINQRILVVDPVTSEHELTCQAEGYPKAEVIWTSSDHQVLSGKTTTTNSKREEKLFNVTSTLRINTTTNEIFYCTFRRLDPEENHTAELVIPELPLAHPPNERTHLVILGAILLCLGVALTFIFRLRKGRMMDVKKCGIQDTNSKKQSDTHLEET
TEST METHOD NOTES: LK35.2-hPD-L1 cell binding high-content screening assay
Type: cell-based
MEASUREMENT PARAMETERS: cluster symbol; cell line of CBA not given (LK35.2-hPD-L1 or 293T-hPD-L1); read-out: CBA IC50 cluster
Protocol: LK35.2-hPD-L1 Cell Binding High-Content Screening Assay. Phycoerythrin (PE) was covalently linked to the Ig epitope tag of human PD-1-Ig and fluorescently-labeled PD-1-Ig was used for binding studies with a mouse B cell line (LK35.2) stably over-expressing human PD-L1 (LK35.2-hPD-L1). Briefly, 3×10^3 LK35.2-hPD-L1 cells were seeded into 384 well plates in 20 ul of RPMI supplemented with 10% fetal calf serum and cultured overnight. […]
pIC50: −log10 of the molar value. Positions of bridges follow the written chain, without caps; N, C: chain ends. Non-standard residues stand in square brackets, D forms with d. Residues, ends and D or L forms follow the SMILES beside them. NMeF = CN[C@@H](Cc1ccccc1)C(=O)O; NMeNle = CCCC[C@H](NC)C(=O)O; Sar = CNCC(=O)O
ASSAY READOUT: pIC50

Data request: Recorded pIC50 of CCCC[C@H]1C(=O)N(C)CC(=O)N[C@@H](CC(=O)O)C(=O)N[C@@H](COC)C(=O)N(C)[C@@H](Cc2ccccc2)C(=O)N[C@@H](Cc2ccc(O)cc2)C(=O)N(C)CC(=O)N[C@@H](Cc2c[nH]c3ccccc23)C(=O)N[C@@H](Cc2ccc(O)cc2)C(=O)N[C@@H](CC(C)C)C(=O)N[C@H](C(=O)NCC(N)=O)CSCC(=O)N[C@@H](Cc2ccccc2)C(=O)N(C)[C@@H](Cc2ccccc2)C(=O)N1C [Example 3155] ({CH2CO}-F[NMeF][NMeNle][Sar]DS(Me)[NMeF]Y[Sar]WYLCG-NH2; thioether N-13) , please.
Data returned: < 7.13

* * *

TARGET UNDER TEST: LK35.2-hPD-L1 cells / PE-labeled PD-1-Ig (Homo sapiens)
Construct: expressed in transfected cells; host or cells: LK35.2 mouse B cell line
TEST METHOD NOTES: LK35.2-hPD-L1 cell binding high-content screening assay
Assay type: cell-based
MEASUREMENT PARAMETERS: cell binding assay, cell line not given; value given instead of cluster; read-out: CBA IC50 value
Positions of bridges follow the written chain, without caps; N, C: chain ends. Non-standard residues stand in square brackets, D forms with d. Residues, ends and D or L forms follow the SMILES beside them. Tyr(3-Br) = N[C@@H](Cc1ccc(O)c(Br)c1)C(=O)O; NMeNle = CCCC[C@H](NC)C(=O)O; NMeA = CN[C@@H](C)C(=O)O; Dab = NCC[C@H](N)C(=O)O; Sar = CNCC(=O)O
ASSAY READOUT: pIC50
Give bare numbers, as −log10 of the molar value.

Data request: Query: pIC50; subject: CCCC[C@H]1C(=O)N2CCC[C@@H]2C(=O)N[C@@H](CCN)C(=O)N[C@H](C(=O)NCC(N)=O)CSCC(=O)N[C@@H](Cc2ccc(O)c(Br)c2)C(=O)N(C)[C@@H](C)C(=O)N[C@@H](CC(N)=O)C(=O)N2CCC[C@H]2C(=O)N[C@@H](Cc2cnc[nH]2)C(=O)N[C@@H](CC(C)C)C(=O)N(C)CC(=O)N[C@@H](Cc2c[nH]c3ccccc23)C(=O)N[C@@H](CCN)C(=O)N[C@@H](Cc2c[nH]c3ccccc23)C(=O)N1C [Example 6045] ({CH2CO}-[Tyr(3-Br)][NMeA]NPHL[Sar]W[Dab]W[NMeNle][dP][Dab]CG-NH2; thioether N-14)
Data returned: 6.20
